# Species on record: Rattus norvegicus
# experiment notes: Open TG-GATES - Regimen: Single
# Type: toxicity, organism-based, Sprague-Dawley
# Parameters: regimen Single, gender Male, age 6 weeks
# setup conditions: in vivo, po, 0 mg/kg, 3 h, tissue Kidney, route gavage, dose level Control

{"columns": ["record smiles", "KIDNEY_R, g"],
 "data": [
  ["C#C[C@]1(O)CC[C@H]2[C@@H]3CCc4cc(O)ccc4[C@H]3CC[C@@]21C", 0.8],
  ["O=C(N[C@H](CO)[C@H](O)c1ccc([N+](=O)[O-])cc1)C(Cl)Cl", 0.9],
  ["CC(C)(S)[C@@H](N)C(=O)O", 0.9],
  ["C[C@](N)(Cc1ccc(O)c(O)c1)C(=O)O", 0.8]
]}

* * *

# Species: Rattus norvegicus
# experiment notes: Open TG-GATES - Regimen: Single
# Assay type: toxicity, organism-based, Sprague-Dawley
# Design: regimen Single, gender Male, age 6 weeks
# setup conditions: in vivo, po, 0 mg/kg, 24 h, tissue Plasma, route gavage, dose level Control

{"columns": ["compound", "GLC, mg/dL"],
 "data": [
  ["O=C(N[C@H](CO)[C@H](O)c1ccc([N+](=O)[O-])cc1)C(Cl)Cl", 191.6],
  ["CCN1CCCC1CNC(=O)c1cc(S(N)(=O)=O)ccc1OC (centres undefined) [SULPIRIDE]", 186.2],
  ["CC(C)C(=O)Nc1ccc([N+](=O)[O-])c(C(F)(F)F)c1 [FLUTAMIDE]", 212],
  ["CC(C)(S)[C@@H](N)C(=O)O", 174.8]
]}

* * *

# Species: Rattus norvegicus
# experiment notes: Open TG-GATES - Regimen: Daily Repeat
# Type: toxicity, organism-based, Sprague-Dawley
# Design: regimen Daily Repeat, gender Male, age 6 weeks
# setup conditions: in vivo, po, 0 mg/kg, […], tissue Plasma, route gavage, dose level Control, time 14 day

{"columns": ["molecule", "TC [mg/dL]"],
 "data": [
  ["O=C(N[C@H](CO)[C@H](O)c1ccc([N+](=O)[O-])cc1)C(Cl)Cl [CHLORAMPHENICOL]", 63.6],
  ["C#C[C@]1(O)CC[C@H]2[C@@H]3CCc4cc(O)ccc4[C@H]3CC[C@@]21C [ETHINYL ESTRADIOL]", 74.6],
  ["CCSCC[C@H](N)C(=O)O [ETHIONINE]", 70],
  ["C[C@]12CCC(=O)C=C1CC[C@@H]1[C@@H]2CC[C@@]2(C)[C@H]1CC[C@]2(C)O [METHYLTESTOSTERONE]", 75.6],
  ["Nc1nc(N)c2nc(-c3ccccc3)c(N)nc2n1", 72.8],
  ["C[C@](N)(Cc1ccc(O)c(O)c1)C(=O)O [METHYLDOPA]", 76]
]}

* * *

# Organism: Rattus norvegicus
# experiment notes: Open TG-GATES - Regimen: Daily Repeat
# Format: toxicity, organism-based, Sprague-Dawley
# Design: regimen Daily Repeat, gender Male, age 6 weeks
# setup conditions: in vivo, po, 0 mg/kg, […], tissue Plasma, route gavage, dose level Control, time 28 day
The following compounds are listed with their measured PL values.

{"columns": ["compound", "units text", "PL"],
 "data": [
  ["CC(C)C(=O)Nc1ccc([N+](=O)[O-])c(C(F)(F)F)c1 [FLUTAMIDE]", "mg/dL", 130.2],
  ["C[C@]12CCC(=O)C=C1CC[C@@H]1[C@@H]2CC[C@@]2(C)[C@H]1CC[C@]2(C)O", "mg/dL", 127.8],
  ["O=C(O)c1cccnc1", "mg/dL", 149.4],
  ["CC(=N)S [THIOACETAMIDE]", "mg/dL", 172.8]
]}

* * *

# Species on record: Rattus norvegicus
# experiment notes: Open TG-GATES - Regimen: Daily Repeat
# Type: toxicity, organism-based, Sprague-Dawley
# Design: regimen Daily Repeat, gender Male, age 6 weeks
# setup conditions: in vivo, po, 0 mg/kg, […], tissue Plasma, route gavage, dose level Control, time 14 day
Please note: Fulfilled applies when IP is 7 mg/dL or greater, and Not fulfilled applies otherwise.

{"columns": ["molecule", "cat"],
 "data": [
  ["CCc1oc2ccccc2c1C(=O)c1cc(I)c(O)c(I)c1 [BENZIODARONE]", "Not fulfilled"],
  ["C#C[C@]1(O)CC[C@H]2[C@@H]3CCc4cc(O)ccc4[C@H]3CC[C@@]21C [ETHINYL ESTRADIOL]", "Not fulfilled"],
  ["Oc1ncnc2[nH]ncc12 [ALLOPURINOL]", "Fulfilled"],
  ["CCN1CCCC1CNC(=O)c1cc(S(N)(=O)=O)ccc1OC (centres undefined) [SULPIRIDE]", "Fulfilled"],
  ["CCSCC[C@H](N)C(=O)O [ETHIONINE]", "Fulfilled"]
]}

* * *

# Organism: Rattus norvegicus
# experiment notes: Open TG-GATES - Regimen: Daily Repeat
# Format: toxicity, organism-based, Sprague-Dawley
# Design: regimen Daily Repeat, gender Male, age 6 weeks
# setup conditions: in vivo, po, 0 mg/kg, […], tissue Plasma, route gavage, dose level Control, time 14 day
test readout: RALB (g/dL)

{"columns": ["compound", "test readout", "readout value"],
 "data": [
  ["CC(C)(S)[C@@H](N)C(=O)O", "RALB", 2.8],
  ["CC(=N)S [THIOACETAMIDE]", "RALB", 4.1],
  ["Oc1ncnc2[nH]ncc12", "RALB", 3.6],
  ["O=C(O)c1cccnc1", "RALB", 3.1],
  ["CCC(C)(C)C(=O)O[C@H]1C[C@@H](C)C=C2C=C[C@H](C)[C@H](CC[C@@H]3C[C@@H](O)CC(=O)O3)[C@H]21", "RALB", 3.8],
  ["CC(C)C(=O)Nc1ccc([N+](=O)[O-])c(C(F)(F)F)c1 [FLUTAMIDE]", "RALB", 3.5],
  ["O=C(N[C@H](CO)[C@H](O)c1ccc([N+](=O)[O-])cc1)C(Cl)Cl", "RALB", 2.7],
  ["C[C@](N)(Cc1ccc(O)c(O)c1)C(=O)O", "RALB", 2.7],
  ["C[C@]12CCC(=O)C=C1CC[C@@H]1[C@@H]2CC[C@@]2(C)[C@H]1CC[C@]2(C)O", "RALB", 2.7],
  ["CCSCC[C@H](N)C(=O)O", "RALB", 3.5]
]}

* * *

The following compounds are listed with their measured Na values.
# Organism: Rattus norvegicus
# experiment notes: Open TG-GATES - Regimen: Single
# Assay type: toxicity, organism-based, Sprague-Dawley
# Set-up: regimen Single, gender Male, age 6 weeks
# setup conditions: in vivo, po, 0 mg/kg, 9 h, tissue Plasma, route gavage, dose level Control
test readout: Na (meq/L)

{"columns": ["compound", "test readout", "readout value"],
 "data": [
  ["CN1C(=O)OC(C)(C)C1=O", "Na", 141.4],
  ["O=C(O)c1cccnc1", "Na", 140.4],
  ["C#C[C@]1(O)CC[C@H]2[C@@H]3CCc4cc(O)ccc4[C@H]3CC[C@@]21C", "Na", 144],
  ["CCSCC[C@H](N)C(=O)O", "Na", 141.2],
  ["CC(C)C(=O)Nc1ccc([N+](=O)[O-])c(C(F)(F)F)c1 [FLUTAMIDE]", "Na", 141.4],
  ["CCC(C)(C)C(=O)O[C@H]1C[C@@H](C)C=C2C=C[C@H](C)[C@H](CC[C@@H]3C[C@@H](O)CC(=O)O3)[C@H]21", "Na", 137.6],
  ["CC(=N)S [THIOACETAMIDE]", "Na", 136.6],
  ["CCc1oc2ccccc2c1C(=O)c1cc(I)c(O)c(I)c1", "Na", 142.4],
  ["CC(=O)Oc1cc(C(C)C)c(OCCN(C)C)cc1C", "Na", 142.2],
  ["CC(C)(S)[C@@H](N)C(=O)O", "Na", 143.6]
]}

* * *

# Species on record: Rattus norvegicus
# experiment notes: Open TG-GATES - Regimen: Single
# Format: toxicity, organism-based, Sprague-Dawley
# Parameters: regimen Single, gender Male, age 6 weeks
# setup conditions: in vivo, po, 0 mg/kg, 9 h, tissue Plasma, route gavage, dose level Control
The following compounds are listed with their measured IP values.
test readout: IP (mg/dL)

{"columns": ["compound", "test readout", "readout value"],
 "data": [
  ["CC(=N)S [THIOACETAMIDE]", "IP", 9.8],
  ["CCN1CCCC1CNC(=O)c1cc(S(N)(=O)=O)ccc1OC (stereo not drawn) [SULPIRIDE]", "IP", 9.8],
  ["CC(C)(S)[C@@H](N)C(=O)O [PENICILLAMINE]", "IP", 9.8]
]}

Reference for the values: ChEMBL document CHEMBL3885861
